# Target entity: T1, human G-CSF receptor (human, UniProt Q99062 25-836)
# T1 sequence (looked up): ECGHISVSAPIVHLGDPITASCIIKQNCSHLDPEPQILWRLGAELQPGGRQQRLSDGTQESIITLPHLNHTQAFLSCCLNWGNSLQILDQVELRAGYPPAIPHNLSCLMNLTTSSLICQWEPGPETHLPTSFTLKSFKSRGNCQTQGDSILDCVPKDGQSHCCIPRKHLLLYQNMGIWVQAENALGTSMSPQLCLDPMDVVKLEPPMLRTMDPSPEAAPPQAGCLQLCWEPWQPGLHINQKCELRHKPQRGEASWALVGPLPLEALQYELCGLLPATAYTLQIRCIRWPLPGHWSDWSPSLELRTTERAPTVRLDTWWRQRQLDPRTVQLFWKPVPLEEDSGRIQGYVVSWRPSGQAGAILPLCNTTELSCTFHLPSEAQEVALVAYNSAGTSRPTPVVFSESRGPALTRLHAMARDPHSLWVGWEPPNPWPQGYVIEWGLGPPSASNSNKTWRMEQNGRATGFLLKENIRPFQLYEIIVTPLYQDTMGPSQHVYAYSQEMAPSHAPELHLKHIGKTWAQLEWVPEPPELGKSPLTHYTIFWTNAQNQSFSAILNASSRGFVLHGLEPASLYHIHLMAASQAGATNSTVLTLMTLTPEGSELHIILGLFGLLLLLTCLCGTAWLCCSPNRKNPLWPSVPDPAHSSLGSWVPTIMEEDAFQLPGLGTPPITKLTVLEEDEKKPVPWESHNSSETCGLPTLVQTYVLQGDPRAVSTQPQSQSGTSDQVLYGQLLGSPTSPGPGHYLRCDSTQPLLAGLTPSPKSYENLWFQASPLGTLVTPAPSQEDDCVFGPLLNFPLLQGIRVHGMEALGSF
# Assay name: cell-based or functional assay
Specific activity (% of Neupogen®), from EC50 in luciferase reporter assay for assorted binders

Binder	Value reported
Single-chain G-CSF dimer (K16R K34R K40R)copy 1,2 (ligand) TPLGPASSLPQSFLLRCLEQVRKIQGDGAALQERLCATYRLCHPEELVLLGHSLGIPWAPLSSCPSQALQLAGCLSQLHSGLFLYQGLLQALEGISPELGPTLDTLQLDVADFATTIWQQMEELGMAPALQPTQGAMPAFASAFQRRAGGVLVASHLQSFLEVSYRVLRHLAQPTPLGPASSLPQSFLLRCLEQVRKIQGDGAALQERLCATYRLCHPEELVLLGHSLGIPWAPLSSCPSQALQLAGCLSQLHSGLFLYQGLLQALEGISPELGPTLDTLQLDVADFATTIWQQMEELGMAPALQPTQGAMPAFASAFQRRAGGVLVASHLQSFLEVSYRVLRHLAQP	300 % of Neupogen®
Single-chain G-CSF dimer (K16R K34R K40R)copy 1,2 PEG12000 (ligand, SPA-PEG 12000 covalently linked to the available PEGylation sites; number and positions not stated) TPLGPASSLPQSFLLRCLEQVRKIQGDGAALQERLCATYRLCHPEELVLLGHSLGIPWAPLSSCPSQALQLAGCLSQLHSGLFLYQGLLQALEGISPELGPTLDTLQLDVADFATTIWQQMEELGMAPALQPTQGAMPAFASAFQRRAGGVLVASHLQSFLEVSYRVLRHLAQPTPLGPASSLPQSFLLRCLEQVRKIQGDGAALQERLCATYRLCHPEELVLLGHSLGIPWAPLSSCPSQALQLAGCLSQLHSGLFLYQGLLQALEGISPELGPTLDTLQLDVADFATTIWQQMEELGMAPALQPTQGAMPAFASAFQRRAGGVLVASHLQSFLEVSYRVLRHLAQP	10 % of Neupogen®

Turning now to a further binder:
Returns the measured Specific activity (% of Neupogen®), from EC50 in luciferase reporter assay for the input binder. Input: Single-chain G-CSF dimer PEG5000 (ligand, SPA-PEG 5000 covalently linked to the available PEGylation sites; number and positions not stated) TPLGPASSLPQSFLLKCLEQVRKIQGDGAALQEKLCATYKLCHPEELVLLGHSLGIPWAPLSSCPSQALQLAGCLSQLHSGLFLYQGLLQALEGISPELGPTLDTLQLDVADFATTIWQQMEELGMAPALQPTQGAMPAFASAFQRRAGGVLVASHLQSFLEVSYRVLRHLAQPTPLGPASSLPQSFLLKCLEQVRKIQGDGAALQEKLCATYKLCHPEELVLLGHSLGIPWAPLSSCPSQALQLAGCLSQLHSGLFLYQGLLQALEGISPELGPTLDTLQLDVADFATTIWQQMEELGMAPALQPTQGAMPAFASAFQRRAGGVLVASHLQSFLEVSYRVLRHLAQP
120 % of Neupogen®
